- system: Retinoic acid receptor RXR-alpha (Homo sapiens)
- assayProtocol: OT_NURR1_NURR1RXRa_0480: Odyssey Thera (OT) 8-hour HEK293T Protein Complementation Assay for Nurr1/retinoid X receptor (RXR) (AID 2283385)
Records with an inconclusive call do not appear. Calls of active or inactive are those of the source. Rule for the calls: active = hit-call score of the fitted dose curve at least 0.9, where 1 is the maximum; inconclusive = response in the unintended direction; inactive = score below 0.9.
Outcomes: T = active, F = inactive

1) C=CC(N)=O | F
2) O=C(NC(=O)c1c(F)cccc1F)Nc1cc(Cl)c(OC(F)(F)C(F)F)c(Cl)c1 | F
3) CCCCCCOC(=O)c1ccccc1C(=O)OCCCCCC | F
4) O=C(NC(=O)c1cc(F)c(F)cc1Cl)Nc1cc(F)ccc1N1CCC(C(=O)O)CC1 | F
5) CC(C)(O)C(=O)Nc1ccc([N+](=O)[O-])c(C(F)(F)F)c1 | F
6) Oc1ccc(Cl)cc1Cl | F
7) CCC(C)c1cc([N+](=O)[O-])cc([N+](=O)[O-])c1O (stereo not drawn) | F
8) Nc1ccc(-c2ccc(N)cc2)cc1 | F
9) O=NN(c1ccccc1)c1ccccc1 | F
10) CCCCCCCCOC(=O)c1ccccc1C(=O)OCCCCCCCC | F
11) CCOP(=S)(OCC)SCSC(C)(C)C | F
12) CCC(C)(CC)c1cc(NC(=O)c2c(OC)cccc2OC)on1 | F
13) Cc1ccccc1CO[C@@H]1C[C@@]2(C(C)C)CC[C@]1(C)O2 | T

----------
- assayProtocol: Tanguay_ZF_120hpf_SNOU_legacy: (Legacy) Oregon State University Tanguay Lab 120 Hour Post-fertilization zebrafish Assay for Snout Malformation (AID 2283637)
- Method: Tanguay_ZF_120hpf_legacy is a whole embryo, multiplexed endpoint assay using zebrafish larvae exposed for 120 hours post fertilization on a 96-well plate.Tanguay_ZF_120hpf_SNOU_legacy is one of one assay component(s) measured or calculated from the Tanguay_ZF_120hpf_legacy assay. […] This assay endpoint, Tanguay_ZF_120hpf_SNOU_legacy, was analyzed in the positive analysis fitting direction relative to DMSO as the negative control and baseline of activity. […]
Results filed as inconclusive are left out. Active and inactive are the calls of the source. How the source made its calls: active means hit-call score of the fitted dose curve at least 0.9, where 1 is the maximum; inconclusive means response in the unintended direction; inactive means score below 0.9.
Outcomes: active, inactive

1. CN(C)c1nc(=O)n(C2CCCCC2)c(=O)n1C | inactive
2. CCOC(=O)C(O)(c1ccc(Cl)cc1)c1ccc(Cl)cc1 | inactive
3. ClC(Cl)=C(c1ccc(Cl)cc1)c1ccc(Cl)cc1 | inactive
4. O=C(O)C(F)(F)C(F)(F)C(F)(F)C(F)(F)C(F)(F)F | inactive
5. CC(c1ccc(O)cc1)(c1ccc(O)cc1)c1ccc(O)cc1 | inactive
6. CC(C)(O)C(=O)Nc1ccc([N+](=O)[O-])c(C(F)(F)F)c1 | active
7. O=C(NC(=O)c1cc(F)c(F)cc1Cl)Nc1cc(F)ccc1N1CCC(C(=O)O)CC1 | inactive
8. C1CC2OC2CC1C1CO1 (configuration not stated) | inactive
9. CCC(C)c1cc([N+](=O)[O-])cc([N+](=O)[O-])c1O (configuration not stated) | inactive
10. CCCCCCCCCc1ccc(O)cc1 | inactive
11. CCCN(CCC)N=O | inactive
12. COc1ccc(O)c(C(C)(C)C)c1 | inactive

----------
- assayProtocol: CCTE_Shafer_MEA_dev_per_network_spike_spike_number_mean: CCTE's Neural Network Formation Assay for Mean Number of Spikes in a Network Spike, Shafer Lab (AID 2284053)
Activity calls are given as the source filed them. How the source made its calls: active means hit-call score of the fitted dose curve at least 0.9, where 1 is the maximum; inactive means score below 0.9.
Outcomes: active, inactive

1) CCC(C)(c1ccc(O)cc1)c1ccc(O)cc1 | inactive
2) Oc1ccc(C(c2ccc(O)cc2)(C(F)(F)F)C(F)(F)F)cc1 | inactive
3) ClC1=C(Cl)[C@]2(Cl)[C@@H]3[C@@H]4C[C@@H]([C@H]5O[C@@H]45)[C@@H]3[C@@]1(Cl)C2(Cl)Cl | inactive
4) Clc1ccc(C(c2ccccc2Cl)C(Cl)(Cl)Cl)cc1 (configuration not stated) | active
5) C=CC(N)=O | inactive
6) O=S(=O)(O)C(F)(F)C(F)(F)C(F)(F)C(F)(F)C(F)(F)C(F)(F)F | inactive
7) O=C(O)C(F)(F)C(F)(F)C(F)(F)C(F)(F)C(F)(F)F | inactive
